system: TRPC4 (transient receptor potential cation channel C4 beta), mouse; test: potentiation of DAMGO EC20 TRPC4 response – cell-based, second round, Fluo-4, HEK293 TRPC4beta/mu-opioid, 1 µM, confirmation (AID 2554); conditions: DAMGO EC20, Fluo-4 calcium flux, at 1 µM
Calls of active or inactive are those of the source.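 How the source made its calls: active means primary screen hit whose fluorescence ratio, in both repeats, exceeds the weak agonist control mean by 3 SD; inactive means the rest.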
Outcomes: t (active), f (inactive)

>  <COMPOUND>
CCCn1c(NC(=O)c2ccc(Cl)c(S(=O)(=O)N3CCCC3)c2)nc2ccccc21

>  <CATEGORY>
t

$$$$
>  <COMPOUND>
c1ccc(CN2CCN(Cc3c[nH]c4ccccc34)CC2)cc1

>  <CATEGORY>
f

$$$$
>  <COMPOUND>
CC(C)c1ccc(S(=O)(=O)/N=C2\C=C(NS(=O)(=O)c3ccccc3)C(=O)c3ccccc32)cc1

>  <CATEGORY>
f

$$$$
>  <COMPOUND>
C=C(C)Cn1c(SCC)nc2ccccc2c1=O

>  <CATEGORY>
f

$$$$
>  <COMPOUND>
O=[N+]([O-])c1cccc(N(CC(O)CN2CCCC2)S(=O)(=O)c2ccccc2)c1 (stereo unspecified)

>  <CATEGORY>
f

$$$$
>  <COMPOUND>
CN(CCc1ccccn1)C1CC(=O)N(c2ccc(Cl)cc2)C1=O (stereo unspecified)

>  <CATEGORY>
f

$$$$

----------
assay: serotonin-gated TRPC4 signal block – cell-based, second counter screen, HEK293 TRPC4/5HT1a, Fluo-4, counter-screen for TRPC4 inhibitor project, confirmation (AID 434978); settings: Fluo-4 calcium flux, at 10 µM, serotonin added to trigger calcium flux
The source made the active and inactive calls.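 How the source made its calls: active means primary screen active whose calcium signal fell more than 3 SD beyond the full-serotonin control mean in both duplicate plates; inactive means the rest.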
Outcomes: y (active), n (inactive)

>  <COMPOUND>
CCOC(=O)C1(Cc2ccccc2)CCN(CC2CC=CCC2)CC1 (stereo not drawn)

>  <CATEGORY>
n

$$$$
>  <COMPOUND>
CCN1CCN(CCC(=O)Nc2ccccc2OC)CC1

>  <CATEGORY>
n

$$$$
>  <COMPOUND>
c1ccc(CN2CCN(c3nc4ccccc4s3)CC2)cc1

>  <CATEGORY>
n

$$$$
>  <COMPOUND>
Cc1ccn(CC(=O)NC2CCCN(Cc3ccc(CC(C)C)cc3)C2)n1 (stereo not drawn)

>  <CATEGORY>
n

$$$$
>  <COMPOUND>
CCc1c(C)nc2ccc(Br)cc2c1SCCC#N

>  <CATEGORY>
n

$$$$
>  <COMPOUND>
O=[N+]([O-])c1cccc(CSc2nnc(Cc3ccccc3)n2-c2ccc(F)cc2)c1

>  <CATEGORY>
n

$$$$
>  <COMPOUND>
C(=N\N(Cc1ccccc1)c1ccccc1)/c1cccnc1

>  <CATEGORY>
y

$$$$
>  <COMPOUND>
CC(C)NC(=S)N1CCN(C/C=C/c2ccccc2)CC1

>  <CATEGORY>
n

$$$$
>  <COMPOUND>
COc1cc(Cl)c(S(=O)(=O)N2CCN(Cc3ccc4c(c3)OCO4)CC2)cc1Cl

>  <CATEGORY>
n

$$$$
>  <COMPOUND>
c1ccc2c(N3CCCCC3)nc(N3CCOCC3)nc2c1

>  <CATEGORY>
y

$$$$
>  <COMPOUND>
CCOc1ccc2nc(NCCNC(=O)C3CC3)c(C)cc2c1

>  <CATEGORY>
n

$$$$
>  <COMPOUND>
Cc1cc(C)c(C(=O)c2ccc(C(=O)N3CCCCC3)cc2)c(C)c1

>  <CATEGORY>
n

$$$$
>  <COMPOUND>
CCOC(=O)COc1cc(-n2c(=S)[nH]c3ccccc3c2=O)c(Cl)cc1Cl

>  <CATEGORY>
n

$$$$
>  <COMPOUND>
CCCC(=O)N/C(N)=N/c1nc(C)c2ccccc2n1

>  <CATEGORY>
n

$$$$
>  <COMPOUND>
O=C(CN1CCCCCC1)N1c2ccccc2Sc2ccccc21

>  <CATEGORY>
y

$$$$
>  <COMPOUND>
CCCOc1cccc(C(=O)NCCNC(=O)c2ccco2)c1

>  <CATEGORY>
n

$$$$
>  <COMPOUND>
NC1=NC2(CCN(Cc3ccccc3)CC2)n2c(nc3ccccc32)N1

>  <CATEGORY>
n

$$$$
>  <COMPOUND>
CCSc1ccccc1C(=O)NCCc1ccccc1

>  <CATEGORY>
n

$$$$
>  <COMPOUND>
O=C(O)CN1C(c2ccccc2O)Nc2ccc(Br)cc2C1c1ccccc1 (stereo not drawn)

>  <CATEGORY>
y

$$$$
>  <COMPOUND>
O=C(CSc1nnc(-c2ccc(Cl)cc2Cl)n1C1CCCCC1)NC1CCS(=O)(=O)C1 (stereo not drawn)

>  <CATEGORY>
n

$$$$
>  <COMPOUND>
CN(C)c1ccc(C(=S)N2CCN(c3ccc([N+](=O)[O-])cc3)CC2)cc1

>  <CATEGORY>
n

$$$$
>  <COMPOUND>
CC1CCCN(CCCN2C(=O)C3C(C(=O)Nc4ccc(Cl)cc4)C4C=CC3(O4)C2C(=O)NC2CCCCC2)C1 (stereo not drawn)

>  <CATEGORY>
y

$$$$
>  <COMPOUND>
Cc1ccc(C)c(-n2cc(CNCCCn3cccn3)c(-c3ccccc3)n2)c1

>  <CATEGORY>
n

$$$$
